Target: T1, GFP-9S library array, motif 4 ND D124T (synthetic construct, D124T)
T1 chain: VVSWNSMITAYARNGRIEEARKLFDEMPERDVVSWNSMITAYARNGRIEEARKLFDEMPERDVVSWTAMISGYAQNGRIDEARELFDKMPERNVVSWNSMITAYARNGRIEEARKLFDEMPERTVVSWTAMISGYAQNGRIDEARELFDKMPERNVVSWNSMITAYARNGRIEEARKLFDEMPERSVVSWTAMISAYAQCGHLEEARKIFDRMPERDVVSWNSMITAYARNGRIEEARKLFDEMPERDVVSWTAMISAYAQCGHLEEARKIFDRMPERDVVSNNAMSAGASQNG
Assay: high-throughput RNA pulldown from lysate on Ni-NTA beads; HRP: 50 mM Tris pH 8, 150 mM NaCl, 1 mM beta-mercaptoethanol, 50 ug/ml BSA, 3 ug/ml yeast RNA, 0.5% heparin; ITC and FP: Tris pH 8, 200 mM KCl, 5% glycerol; MST: 50 mM Tris pH 8, 200 mM NaCl, 1 mM DTT, BSA, heparin, 0.05% Tween 20
Conditions: tags: N-terminal His-eGFP; label: 5' IRDye 800CW
REPORTED METRIC: Kd (nM)
Provide only the numeric value, understood in nM.

BINDER | Kd, nM
AUUAAACGUGA (ssRNA) [IR-rpoA-A] | 215

// next entry
Memo: AUUAUACGUGA (ssRNA) [IR-rpoA-U] , reported Kd: 24.6
